Measured values drawn from patent US5705487A for this set.

system.name: Human Thrombin (Homo sapiens)
test.description: Inhibition of the amidase activity of thrombin (Kass)
Type: biochemical
conditions.used: chromogenic substrate N-benzoyl-Phe-Val-Arg-p-nitroanilide; mean over range of concentrations
experimental.readout: Kass × 10^6 (L/mole) Human Thrombin

These solved cases illustrate the format of a correct answer.
Cl.Nc1ccc(CNC(=O)[C@@H]2CCCN2C(=O)[C@@H](CC2CCCCC2)NCC(=O)O)c(F)c1 : 15 × 10^6 L/mole
Cl.N=C(N)c1ccc(CNC(=O)[C@@H]2C[C@@H]3CCCC[C@@H]3N2C(=O)[C@@H](CC2CCCCC2)NCC(=O)O)cc1 (relative stereo) : 400 × 10^6 L/mole
CCS(=O)(=O)N[C@H](Cc1ccccc1)C(=O)N1CCC[C@H]1C(=O)NCCCc1cccc(C(=N)N)c1 : 0.07 × 10^6 L/mole
CCS(=O)(=O)N[C@H](Cc1ccccc1)C(=O)N1CCC[C@H]1C(=O)NCc1ccc(NC(=N)N)cc1 : 0.65 × 10^6 L/mole

Please find the next molecule below.
Dear colleague, I am looking for the recorded Kass × 10^6 (L/mole) Human Thrombin of the following molecule: Cl.O=C(O)CNC(CC1CCCCC1)C(=O)N1CCCC1C(=O)NCCC1CCNCC1 (stereo not shown)
2.8 × 10^6 L/mole

###

system.name: factor Xa (Homo sapiens, UniProt P00742)
Construct: Human factors X, Xa, IXa, XIa, and XIIa are purchased; purchased Enzyme Research Laboratories, South Bend, Ind
Sequence (P00742 235-488 limits assumed): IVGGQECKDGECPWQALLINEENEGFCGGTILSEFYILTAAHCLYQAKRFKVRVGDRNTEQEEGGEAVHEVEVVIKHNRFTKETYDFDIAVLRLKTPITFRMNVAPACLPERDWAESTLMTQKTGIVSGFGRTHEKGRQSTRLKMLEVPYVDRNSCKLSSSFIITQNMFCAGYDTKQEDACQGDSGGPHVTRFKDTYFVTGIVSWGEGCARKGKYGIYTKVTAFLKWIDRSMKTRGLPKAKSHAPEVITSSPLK
Sequence (P00742 41-179 partner limits assumed): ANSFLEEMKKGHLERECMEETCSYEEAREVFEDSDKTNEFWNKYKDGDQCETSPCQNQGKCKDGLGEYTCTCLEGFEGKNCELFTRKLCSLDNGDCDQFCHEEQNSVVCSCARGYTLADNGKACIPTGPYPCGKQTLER
test.description: Kass, factor Xa chromogenic substrate assay
Format: biochemical
conditions.used: substrate N-Benzoyl-Ile-Glu-Gly-Arg-p-nitroanilide
experimental.readout: Kass × 10^6 (L/mole) Xa

These solved cases illustrate the format of a correct answer.
N=C(N)c1cccc(CCCNC(=O)[C@@H]2CCCN2C(=O)[C@@H]2NCC[C@@H]3CCCC[C@@H]32)c1 : 0.04 × 10^6 L/mole
N=C(N)N1CCC(CCNC(=O)[C@@H]2CCCN2C(=O)[C@@H](CC2CCCCC2)NCC(=O)O)CC1 : 0.01 × 10^6 L/mole
Cl.N=C(N)c1ccc(CNC(=O)[C@@H]2C[C@@H]3CCCC[C@@H]3N2C(=O)[C@@H](CC2CCCCC2)NCC(=O)O)cc1 (relative stereo) : 3.4 × 10^6 L/mole
CCC(CC)C(=O)N[C@@H](CCS(C)(=O)=O)C(=O)N1CCC[C@H]1C(=O)NCc1ccc(C(=N)N)cc1 : 0.007 × 10^6 L/mole
Cl.Nc1ccc(CNC(=O)[C@@H]2CCCN2C(=O)[C@@H](CC2CCCCC2)NCC(=O)O)c(F)c1 : 0.01 × 10^6 L/mole
N=C(N)c1ccc(CNC(=O)[C@@H]2C[C@@H]3CCCC[C@@H]3N2C(=O)[C@H]2C[C@H]3CCCC[C@H]3CN2)cc1 (relative stereo) : 0.05 × 10^6 L/mole
N=C(N)Nc1ccc(CCNC(=O)[C@@H]2CCCN2C(=O)[C@@H]2NCC[C@@H]3CCCC[C@@H]32)cc1 : < 0.001 × 10^6 L/mole
N=C(N)c1ccc(CNC(=O)[C@@H]2C[C@@H]3CCCC[C@@H]3N2C(=O)[C@@H](Cc2ccccc2)NCC(=O)O)cc1 (relative stereo) : 0.04 × 10^6 L/mole

Dear colleague, I am looking for the recorded Kass × 10^6 (L/mole) Xa of the following compound: `N=C(N)c1cccc(CCNC(=O)[C@@H]2CCCN2C(=O)[C@@H]2NCC[C@@H]3CCCC[C@@H]32)c1`
0.02 × 10^6 L/mole

What about `CCS(=O)(=O)N[C@H](Cc1ccccc1)C(=O)N1CCC[C@H]1C(=O)NCCc1ccc(C(=N)N)cc1` ?
0.01 × 10^6 L/mole

What about CCS(=O)(=O)N[C@H](Cc1ccccc1)C(=O)N1[C@H](C(=O)NCc2ccc(C(=N)N)cc2)C[C@@H]2CCCC[C@@H]21 (relative stereo) ?
1.5 × 10^6 L/mole

What about `CCS(=O)(=O)N[C@H](Cc1ccccc1)C(=O)N1CCC[C@H]1C(=O)NCCc1cccc(C(=N)N)c1.Cl` ?
0.02 × 10^6 L/mole

What about Cl.Nc1ccc(CCNC(=O)[C@@H]2CCCN2C(=O)[C@H](N)Cc2ccccc2)cc1 [Example 14, D-Phe-Pro-P-NHCH2 CH2 C6 H4 NH2.HCl] ?
0.00014 × 10^6 L/mole

###

Test system: Human Plasma
test.description: Human plasma anticoagulation, activated partial thromboplastin time (APTT)
Format: biochemical
conditions.used: concentration required to double the clotting time
Listed below: Human Plasma Anticoagulation 2x Clotting time APTT values for each entry.
A number alone suffices; assume ng/mL.

These solved cases illustrate the format of a correct answer.
Cl.N=C(N)c1ccc(CNC(=O)[C@@H]2C[C@@H]3CCCC[C@@H]3N2C(=O)[C@@H](CC2CCCCC2)NCC(=O)O)cc1 (relative stereo) [Example 49] : 130
Cl.Cl.N=C(N)c1ccc(CNC(=O)[C@@H]2CCCN2C(=O)[C@H](N)CC2CCCCC2)cc1 [Example 51, D-Cha-Pro-p-NHCH2 C6 H4 C(NH)NH2.2HCl] : 48
N=C(N)c1ccc(CNC(=O)[C@@H]2CCCN2C(=O)[C@@H](CC2CCCCC2)NCCCC(=O)O)cc1 [Example 85] : 100

Dear colleague, I am looking for the recorded Human Plasma Anticoagulation 2x Clotting time APTT of the following compound: NCc1ccc(CNC(=O)[C@@H]2CCCN2C(=O)[C@@H](CC2CCCCC2)NCC(=O)O)cc1 [Example 78]
430

What about Cl.Nc1cc(CCNC(=O)[C@@H]2CCCN2C(=O)[C@@H](CC2CCCCC2)NCC(=O)O)ccn1 [Example 76] ?
490

What about Cl.N=C(N)c1ccc(CNC(=O)[C@@H]2CCCN2C(=O)[C@@H](CC2CCCCC2)NCCC(=O)O)cc1 [Example 52] ?
80

###

system.name: factor Xa (Homo sapiens, UniProt P00742)
Construct: Human factors X, Xa, IXa, XIa, and XIIa are purchased; purchased Enzyme Research Laboratories, South Bend, Ind
test.description: Kass, factor Xa chromogenic substrate assay
Assay type: biochemical
conditions.used: substrate N-Benzoyl-Ile-Glu-Gly-Arg-p-nitroanilide
Structures can show the parent of a compound that is named as a salt.
experimental.readout: Kass × 10^6 (L/mole) Xa

Cl.N=C(N)c1cccc(CNC(=O)[C@@H]2CCCN2C(=O)[C@H](N)Cc2ccccc2)c1 [Example 16, D-Phe-Pro-m-NHCH2 C6 H4 C(NH)NH2.0.75HCl] : 0.0051 × 10^6 L/mole

Dear colleague, I am looking for the recorded Kass × 10^6 (L/mole) Xa of the following compound: Cl.N=C(N)N1CCC(CNC(=O)[C@@H]2CCCN2C(=O)[C@@H](CC2CCCCC2)NCC(=O)O)CC1 [Example 56]
0.20 × 10^6 L/mole

What about N=C(N)NCCCCNC(=O)[C@@H]1CCCN1C(=O)[C@@H]1NCC[C@H]2CCCC[C@H]21 [Example 61, trihydrochloride] ?
0.03 × 10^6 L/mole

What about CCS(=O)(=O)N[C@H](Cc1ccccc1)C(=O)N1CCC[C@H]1C(=O)NCCCc1ccc(C(=N)N)cc1 [Example 30] ?
0.02 × 10^6 L/mole

###

system.name: t-PA (Homo sapiens, UniProt P00750)
Construct: purchased American Diagnostica, Greenwich, Conn
Sequence (P00750 36-562): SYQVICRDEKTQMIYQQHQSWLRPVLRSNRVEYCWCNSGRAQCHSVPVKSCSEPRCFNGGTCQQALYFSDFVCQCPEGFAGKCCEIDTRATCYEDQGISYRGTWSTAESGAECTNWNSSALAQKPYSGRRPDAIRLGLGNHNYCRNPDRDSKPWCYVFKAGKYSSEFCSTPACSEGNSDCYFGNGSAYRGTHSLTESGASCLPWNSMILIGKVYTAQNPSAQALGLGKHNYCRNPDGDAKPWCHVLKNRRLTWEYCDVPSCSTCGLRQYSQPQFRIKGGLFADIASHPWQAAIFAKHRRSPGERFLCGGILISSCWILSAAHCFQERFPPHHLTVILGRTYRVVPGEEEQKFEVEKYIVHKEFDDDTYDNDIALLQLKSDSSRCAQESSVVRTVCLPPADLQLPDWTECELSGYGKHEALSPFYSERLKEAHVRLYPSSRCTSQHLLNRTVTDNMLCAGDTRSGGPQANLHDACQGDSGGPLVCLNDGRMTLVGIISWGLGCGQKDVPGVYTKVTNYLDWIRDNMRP
test.description: Kass, t-PA chromogenic substrate assay
Format: biochemical
conditions.used: substrate H-D-Ile-Pro-Arg-p-nitroanilide
Counter-ions that a name gives are not always drawn.
experimental.readout: Kass × 10^6 (L/mole) t-PA

Cl.NC[C@H]1CC[C@H](CNC(=O)[C@@H]2CCCN2C(=O)[C@H](N)Cc2ccccc2)CC1 (relative stereo) : 0.000042 × 10^6 L/mole
O=C(O)CN[C@H](CC1CCCCC1)C(=O)N1CCC[C@H]1C(=O)NCC1CCNCC1 : < 0.001 × 10^6 L/mole
O=C(O)CN[C@H](CC1CCCCC1)C(=O)N1CCC[C@H]1C(=O)NCCCC1CCNCC1 : < 0.001 × 10^6 L/mole
Cl.N=C(N)c1ccc(CNC(=O)[C@@H]2C[C@@H]3CCCC[C@@H]3N2C(=O)[C@@H](CC2CCCCC2)NCC(=O)O)cc1 (relative stereo) : 0.04 × 10^6 L/mole
Cl.N=C(N)c1ccc(CCCNC(=O)C2CCCN2C(=O)C2NCCC3CCCCC32)cc1 (stereo not shown) : 0.01 × 10^6 L/mole
N=C(N)NCCCCNC(=O)[C@@H]1CCCN1C(=O)[C@@H]1NCC[C@H]2CCCC[C@H]21 [Example 61, trihydrochloride] : 0.008 × 10^6 L/mole
N=C(N)c1ccc(CNC(=O)[C@@H]2C[C@H](Oc3ccccc3)CN2C(=O)[C@H]2CCCCN2)cc1 (relative stereo) : 0.004 × 10^6 L/mole
Cl.O=C(O)CN[C@H](CC1CCCCC1)C(=O)N1CCC[C@H]1C(=O)NCCCC1=CCNCC1 : < 0.001 × 10^6 L/mole
CCOC(=O)N[C@H](Cc1ccccc1)C(=O)N1CCC[C@H]1C(=O)NCCCCN=C(N)N.Cl [Example 3, EtOCO-D-Phe-Pro-Agm.HCl] : 0.033 × 10^6 L/mole
CCS(=O)(=O)N[C@H](Cc1ccccc1)C(=O)N1CCC[C@H]1C(=O)NCCc1cccc(C(=N)N)c1.Cl : 0.02 × 10^6 L/mole

Dear colleague, I am looking for the recorded Kass × 10^6 (L/mole) t-PA of the following compound: N=C(N)NCCCNC(=O)[C@@H]1CCCN1C(=O)[C@H](N)Cc1ccccc1 [Example 7, D-Phe-Pro-NH(CH2)3 NHC(NH)NH2.HCl]
0.0037 × 10^6 L/mole

What about Cl.Cl.Cl.N=C(N)c1ccc(CNC(=O)[C@@H]2C[C@@H]3CCCC[C@@H]3N2C(=O)[C@H]2CCCCN2)cc1 (relative stereo) [Example 20, D-hPro-Ohi-p-NHCH2 C6 H4 C(NH)NH2.3HCl] ?
0.0077 × 10^6 L/mole

What about Cl.Nc1ccc(CCNC(=O)[C@@H]2CCCN2C(=O)[C@H](N)Cc2ccccc2)cc1 [Example 14, D-Phe-Pro-P-NHCH2 CH2 C6 H4 NH2.HCl] ?
< 0.001 × 10^6 L/mole
